Data origin, for the record: patent US20240132431A1

# tested_system: Bcl-2 protein (Recombinant Human Bcl-2 Protein) (Homo sapiens)
# Construct: purchased Novus NBP2-34889
# Sequence (P10415 whole entry): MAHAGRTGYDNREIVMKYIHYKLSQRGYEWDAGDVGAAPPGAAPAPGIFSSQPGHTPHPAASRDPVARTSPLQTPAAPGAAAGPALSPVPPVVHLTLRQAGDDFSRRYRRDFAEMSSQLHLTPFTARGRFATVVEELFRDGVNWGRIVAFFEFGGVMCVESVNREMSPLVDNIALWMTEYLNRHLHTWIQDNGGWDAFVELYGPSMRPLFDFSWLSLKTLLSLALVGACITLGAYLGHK
# procedure_text: Binding evaluation of mixture library compounds to Bcl-2 using AS-MS (affinity selection mass spectrometry)
# assay_setup: AS-MS, mixture library, Bcl-2; replicate n = 1; ASMS Ratio(%)=(A−C)/B×100
readout_name: ASMS ratio (%) n = 1
Note: state the figure and append the unit.

Look up ASMS ratio (%) n = 1: CCOc1cncc(-c2cc(C(=O)N3CCN(c4ccc(C(=O)NS(=O)(=O)c5ccc(NCCSc6ccccc6)c([N+](=O)[O-])c5)nn4)CC3)cc(C(C)(C)C)c2)c1
10.6%

Fill in the blank: the reported ASMS ratio (%) n = 1 of CCOc1cccc(-c2cc(C(=O)N3CCN(c4ccc(C(=O)NS(=O)(=O)c5ccc(NCCSc6ccccc6)c([N+](=O)[O-])c5)nn4)CC3)cc(C(C)(C)C)c2)c1 is ____.
17.1%

Look at this compound and give its reported ASMS ratio (%) n = 1. CCOc1cncc(-c2cc(CN3CCN(c4ccc(C(=O)N(CC)CC)nn4)CC3)cc(C(F)(F)F)c2)c1
0.0%

Would you kindly share the measured ASMS ratio (%) n = 1 for CCOc1cncc(-c2cnn(-c3cc(C(=O)N4CCN(c5ccc(C(=O)NS(C)(=O)=O)nn5)CC4)cc(C(F)(F)F)c3)c2)c1 ?
0.0%

GET /values?readout=ASMS ratio (%) n = 1&item= CCOc1cccc(-c2csc(CN3CCN(c4ccc(C(=O)NS(=O)(=O)CC56CC7CC(CC(C7)C5)C6)nn4)CC3)c2)c1
13.0%

Would you mind telling me what ASMS ratio (%) n = 1 value was observed for CCOc1cccc(-c2ccccc2CCC(=O)N2CCN(c3ccc(C(=O)NS(C)(=O)=O)cc3)CC2)c1 ?
0.0%

May I ask what ASMS ratio (%) n = 1 has been recorded for CCOc1cncc(-c2cc(C(=O)N3CCN(c4ccc(C(=O)NS(C)(=O)=O)cc4)CC3)cc(C(C)(C)C)c2)c1 ?
0.0%

# get_value(readout='ASMS ratio (%) n = 1', item= CCOc1cncc(C#Cc2cncc(C(=O)N3CCN(c4ccc(C(=O)NS(=O)(=O)c5ccc(NCCSc6ccccc6)c([N+](=O)[O-])c5)cc4)CC3)c2)c1 )
−0.2%

Reported ASMS ratio (%) n = 1, compound CCOc1cncc(-c2csc(C(=O)N3CCN(c4ccc(C(=O)NS(=O)(=O)c5ccc(NCCSc6ccccc6)c([N+](=O)[O-])c5)cc4)CC3)c2)c1 : ____
4.5%

What ASMS ratio (%) n = 1 value was documented for this compound, CCOc1cncc(-c2cc(CN3CCN(c4ccc(C(=O)NS(=O)(=O)c5ccc(NCCSc6ccccc6)c([N+](=O)[O-])c5)nn4)CC3)cc(OC(F)(F)F)c2)c1 ?
21.8%

What does the data say about its ASMS ratio (%) n = 1? Entry: CCOc1cncc(-c2ccc(CN3CCN(c4ccc(C(=O)NS(=O)(=O)c5ccc(NCCSc6ccccc6)c([N+](=O)[O-])c5)nn4)CC3)cc2C)c1
18.8%

Return reported ASMS ratio (%) n = 1; argument: CCOc1cncc(C#Cc2ccccc2CN2CCN(c3ccc(C(=O)NS(=O)(=O)c4ccc(NCCSc5ccccc5)c([N+](=O)[O-])c4)cc3)CC2)c1
14.3%

Give its ASMS ratio (%) n = 1 value. Item: CCOc1cncc(C#Cc2ccccc2C(=O)N2CCN(c3ccc(C(=O)NS(=O)(=O)CC45CC6CC(CC(C6)C4)C5)nn3)CC2)c1
3.1%

# lookup: ASMS ratio (%) n = 1 of CCOc1cccc(-c2ccc(CN3CCN(c4ccc(C(=O)NS(=O)(=O)CC56CC7CC(CC(C7)C5)C6)nn4)CC3)cc2C)c1
16.2%

# query: ASMS ratio (%) n = 1 of entry CCOc1cccc(-c2cc(CN3CCN(c4ccc(C(=O)N(CC)CC)nn4)CC3)cc(OCC)c2)c1
0.0%

Look up ASMS ratio (%) n = 1 for this compound: CCOc1cccc(-c2cc(CN3CCN(c4ccc(C(=O)NS(=O)(=O)c5ccc(NCCSc6ccccc6)c([N+](=O)[O-])c5)cc4)CC3)cc(C(F)(F)F)c2)c1
15.6%

Which value of ASMS ratio (%) n = 1 has been reported for CCOc1cccc(-c2ccc(CN3CCN(c4ccc(C(=O)NS(=O)(=O)CC56CC7CC(CC(C7)C5)C6)cc4)CC3)c3ccccc23)c1 in the records?
10.5%

Could you tell me which ASMS ratio (%) n = 1 is on file for CCOc1cncc(-c2cc(C(=O)N3CCN(c4ccc(C(=O)NS(=O)(=O)CC56CC7CC(CC(C7)C5)C6)cc4)CC3)cc(C(F)(F)F)c2)c1 ?
0.0%

What value of measured ASMS ratio (%) n = 1 is listed for CCOc1cccc(-c2ccc(CN3CCN(c4ccc(C(=O)NS(=O)(=O)c5ccc(NCCSc6ccccc6)c([N+](=O)[O-])c5)cc4)CC3)c(OC)c2)c1 ?
22.4%

// lookup ASMS ratio (%) n = 1 for CCOc1cccc(-c2ccccc2CCC(=O)N2CCN(c3ccc(C(=O)NS(=O)(=O)c4ccc(NCCSc5ccccc5)c([N+](=O)[O-])c4)nn3)CC2)c1
25.0%

Fill in the blank: the reported ASMS ratio (%) n = 1 of CCOc1cncc(-c2ccc(CN3CCN(c4ccc(C(=O)N(CC)CC)nn4)CC3)c3ccccc23)c1 is ____.
−1.4%

Give its ASMS ratio (%) n = 1 value. Item: CCOc1cncc(-c2ccc(CN3CCN(c4ccc(C(=O)NS(=O)(=O)CC56CC7CC(CC(C7)C5)C6)nn4)CC3)cc2C)c1
9.2%

Can you share its ASMS ratio (%) n = 1? I mean this compound: CCOc1cccc(-c2cc(CN3CCN(c4ccc(C(=O)NS(=O)(=O)c5ccc(NCCSc6ccccc6)c([N+](=O)[O-])c5)cc4)CC3)cc(OCC)c2)c1
9.0%

Query (compound): CCOc1cncc(C#Cc2cc(C(=O)N3CCN(c4ccc(C(=O)NS(=O)(=O)CC56CC7CC(CC(C7)C5)C6)nn4)CC3)cc(C(F)(F)F)c2)c1 ; field requested: ASMS ratio (%) n = 1
3.4%
